Molecular target: T1, 4H797-bA
T1 chain: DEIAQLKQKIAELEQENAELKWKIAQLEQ
Assay: two-hybrid library CCNG1;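 further: natural log of median RNA to DNA barcode read ratio; higher means stronger binding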
Assign class by interaction score: not lower than -0.4 means t; lower than -0.4 means f.

Dear colleague, could you confirm whether DENAQLEQEIAELEQKNAELKWEIAQLEQ [4H1081-bA] has interaction score at or above -0.4?
f

How about this binder: DKIAQLKQENAELEQEIAELKWEIAQLEQ [4H2697-bA]
f

How about this binder: DENAQLEQENAELEQEIAELEWKIAQLKQ [4H1158-bA]
t

How about this binder: DEIAQLEQEIAELKQKIAELKWKNAQLKQ [4H112-bA]
t

How about this binder: DKIAQLKQEIAELEQKNAELEWEIAQLKQ [4H2610-bA]
f

How about this binder: DEIAQLEQKIAELKQEIAELKWENAQLEQ [4H331-bA]
f

How about this binder: DENAQLKQKIAELEQKIAELEWKNAQLEQ [4H1831-bA]
f
